The origin of these recorded values is patent US6147097A.

molecular target: purified recombinant HIV-1 reverse transcriptase (Human immunodeficiency virus type 1 group M subtype B); construct: purified recombinant HIV-1 reverse transcriptase; made in house; host or cells: Escherichia coli; assay: reverse transcriptase inhibition, poly(rA)/(dT) template primer, [3H]dTTP uptake; assay type: biochemical
metric.name: pIC50
Please treat pIC50 as minus the base-10 logarithm of the molar concentration.

compound | pIC50
CCn1c(COC(N)=O)nc(C(C)C)c1Sc1cc(F)cc(F)c1 | 6.37
CC(C)c1nc(CCOC(N)=O)n(Cc2ccc(N)cc2)c1Sc1cc(Cl)cc(Cl)c1 | 4.53
CC(C)c1nc(CO)n(CCO)c1Sc1cc(Cl)cc(Cl)c1 [Compound 119b] | 5.77
CCn1c(CCO)nc(C(C)C)c1Sc1cc(Cl)cc(Cl)c1 [Compound 123a] | 6.38
CC(C)c1nc(CCO)n(Cc2ccccc2[N+](=O)[O-])c1Sc1cc(Cl)cc(Cl)c1 [Compound 126c] | 4.22
CC(C)c1nc(CCOC(N)=O)n(C)c1Sc1cc(Cl)cc(Cl)c1 | 5.11
CC(C)c1nc(COC(N)=O)n(CCCc2ccccn2)c1Sc1cc(Cl)cc(Cl)c1 | 5.40
CC(C)c1nc(COCCOC(N)=O)n(C)c1Sc1cc(Cl)cc(Cl)c1 | 3.73

Requested read-out: pIC50. Entry: CCn1c(CO)nc(C(C)C)c1Sc1cc(F)cc(F)c1
6.24

Requested read-out: pIC50. Entry: CC(C)c1nc(CC(=O)O)n(C)c1Sc1cc(Cl)cc(Cl)c1
5.51

Requested read-out: pIC50. Entry: CC(C)c1nc(CO)n(Cc2ccc([N+](=O)[O-])cc2)c1Sc1cc(Cl)cc(Cl)c1 [Compound 103a]
4.54

Requested read-out: pIC50. Entry: Cc1nc(C(C)C#N)c(Sc2cccc(Cl)c2)n1C (stereo not drawn)
4.60

Requested read-out: pIC50. Entry: CC(C)c1nc(CCO)n(CCO)c1Sc1cc(Cl)cc(Cl)c1 [Compound 131c]
5.59

Requested read-out: pIC50. Entry: CC(O)Cn1c(CO)nc(C(C)C)c1Sc1cc(Cl)cc(Cl)c1 (stereo not drawn)
5.82

Requested read-out: pIC50. Entry: CC(C)c1nc(CNCCO)n(C)c1Sc1cc(Cl)cc(Cl)c1
4.46

====

Reported values of CC50 at 120 h for individual entries
experiment: cytotoxicity in MT-4 cells (MTT, culture medium in place of HIV); assay type: cell-based; settings: human, mt-4 cells
Just the number please, in µg/mL, no unit attached.

Solved entries (count: 2):
compound | metric.name | measured.value
CC(C)c1nc(CO)n(CCCCc2ccccc2)c1Sc1cc(Cl)cc(Cl)c1 [Compound I-123] | CC50 at 120 h | 12.5
CC(C)c1nc(CCOC(N)=O)n(Cc2ccc([N+](=O)[O-])cc2)c1Sc1cc(Cl)cc(Cl)c1 [Compound 128a] | CC50 at 120 h | 6.3

Proceed to the following item.
Requested read-out: CC50 at 120 h. Entry: CCn1c(CCOC(N)=O)nc(C(C)C)c1Sc1cc(Cl)cc(Cl)c1 [Compound I-137]
50

====

experiment: cytotoxicity in MT-4 cells (MTT, culture medium in place of HIV); type: cell-based; details: human; MT-4 cells, no virus, 37° C., 5 days, MTT; Table 3; read-out: CC50
metric.name: CC50 at 120 h

compound | CC50 at 120 h
CCCn1c(CO)nc(C(C)C)c1Sc1cc(Cl)cc(Cl)c1 [Compound I-26] | 10 to 100 µg/mL

Requested read-out: CC50 at 120 h. Entry: C=CCn1c(COC(N)=O)nc(C(C)C)c1Sc1cccc([N+](=O)[O-])c1 [Compound I-48]
25 to 50 µg/mL

Requested read-out: CC50 at 120 h. Entry: CC(C)c1c(Sc2cc(Cl)cc(Cl)c2)nc(CO)n1C [Compound I-39]
10 to 100 µg/mL

Requested read-out: CC50 at 120 h. Entry: CCn1c(CO)nc(C(C)C)c1Sc1cccc([N+](=O)[O-])c1 [Compound I-23]
25 µg/mL

Requested read-out: CC50 at 120 h. Entry: CC(C)c1nc(CO)n(C)c1Cc1cccc(Cl)c1 [Compound I-102]
1 to 10 µg/mL

Requested read-out: CC50 at 120 h. Entry: CC(C)c1nc(COC(N)=O)n(CC(F)(F)F)c1Sc1cc(Cl)cc(Cl)c1 [Compound I-55]
10 to 100 µg/mL

====

assay: cytotoxicity in MT-4 cells (MTT, culture medium in place of HIV); type: cell-based; details: human, mt-4 cells
Reported values of CC50 at 120 h for individual entries

compound | measured.value
CC(C)c1nc(CCO)n(Cc2ccc(N)cc2)c1Sc1cc(Cl)cc(Cl)c1 [Compound I-139] | 6.3 mg/L
CC(C)c1nc(CO)n(Cc2cccc(N)c2)c1Sc1cc(Cl)cc(Cl)c1 [Compound I-118] | 12.5 to 25 mg/L
CC(C)c1nc(CO)n(Cc2ccccc2[N+](=O)[O-])c1Sc1cc(Cl)cc(Cl)c1 [Compound 103c] | 6.3 to 12.5 mg/L

Proceed to the following item.
Requested read-out: CC50 at 120 h. Entry: CCOC(=O)Cn1c(COCc2ccccc2)nc(C(C)C)c1Sc1cc(Cl)cc(Cl)c1 [Compound 118b]
12.5 to 25 mg/L

====

assay: cytotoxicity in MT-4 cells (MTT, culture medium in place of HIV); format: cell-based; conditions: human; MT-4 cells, no virus, 37° C., 5 days, MTT; Table 3; read-out: CC50
Reported values of CC50 at 120 h for individual entries

molecule | metric.name | measured.value
CC(C)c1nc(CO)n(CC2CC2)c1Sc1cc(Cl)cc(Cl)c1 [Compound I-30] | CC50 at 120 h | 10 to 100 mg/L

Requested read-out: CC50 at 120 h. Entry: Cc1ccc(S(=O)(=O)NCc2nc(C(C)C)c(Sc3cc(Cl)cc(Cl)c3)n2C)cc1 [Compound I-88]
1 to 10 mg/L

Requested read-out: CC50 at 120 h. Entry: CC(C)c1nc(CO)n(C(C)C)c1Sc1cc(Cl)cc(Cl)c1 [Compound I-27]
10 to 100 mg/L

Requested read-out: CC50 at 120 h. Entry: CC(C)c1nc(CN)n(C)c1[S+]([O-])c1cc(Cl)cc(Cl)c1 (stereo not shown) [Compound I-110]
10 to 100 mg/L

Requested read-out: CC50 at 120 h. Entry: CCn1c(CO)nc(C(C)C)c1Sc1cccc(F)c1 [Compound I-37]
25 mg/L

Requested read-out: CC50 at 120 h. Entry: Cc1cc(C)cc(S(=O)(=O)c2c(C(C)C)nc(CO)n2C)c1 [Compound I-107]
> 100 mg/L

Requested read-out: CC50 at 120 h. Entry: CC(C)c1nc(CNC(=O)C(F)(F)F)n(C)c1[S+]([O-])c1cc(Cl)cc(Cl)c1 (stereo not shown) [Compound I-112]
> 100 mg/L

Requested read-out: CC50 at 120 h. Entry: CC(C)c1nc(CO)n(C)c1Sc1cc(Cl)cc(Cl)c1 [Compound I-8]
12.5 mg/L

Requested read-out: CC50 at 120 h. Entry: COC(=O)NCc1nc(C(C)C)c(Sc2cc(Cl)cc(Cl)c2)n1C [Compound I-91]
6.3 to 12.5 mg/L

====

biological target: purified recombinant HIV-1 reverse transcriptase (Human immunodeficiency virus type 1 group M subtype B); construct: purified recombinant HIV-1 reverse transcriptase; made in house; host or cells: Escherichia coli; assay: reverse transcriptase inhibition, poly(rA)/(dT) template primer, [3H]dTTP uptake; format: biochemical
metric.name: pIC50
Please treat pIC50 as minus the base-10 logarithm of the molar concentration.

molecule | pIC50
CC(C)c1c(Sc2cc(Cl)cc(Cl)c2)nc(CO)n1C | 3.70

Requested read-out: pIC50. Entry: C=CCn1c(COC(N)=O)nc(C(C)C)c1Sc1cccc([N+](=O)[O-])c1
5.92

Requested read-out: pIC50. Entry: Cc1nc(C(C)C)c(Cc2cc(Cl)cc(Cl)c2)n1C
4.38

Requested read-out: pIC50. Entry: CC(Cn1c(COC(N)=O)nc(C(C)C)c1Sc1cc(Cl)cc(Cl)c1)OC(N)=O (stereo not drawn)
5.49

====

Assay: cytotoxicity in MT-4 cells (MTT, culture medium in place of HIV)
Assay type: cell-based
Conditions: human, mt-4 cells
Protocol: The anti-HIV activity of each of the compounds produced in Examples was assayed by the following procedures. (1) Human T cell line MOLT-4 clone 8 persistently infected by HIV (HTLV-IIIB strain) was cultured in an RPMI-1640 medium supplemented with 10% fetal calf serum, the culture supernatant was filtered, and the titer of virus was determined; the culture supernatant was stored at -80° C. […]
metric.name: CC50 at 120 h

Solved entries (count: 3):
compound | measured.value
CC(C)c1nc(CO)n(Cc2cccc([N+](=O)[O-])c2)c1Sc1cc(Cl)cc(Cl)c1 [Compound 103b] | 50 µg/mL
CC(C)c1nc(COC(N)=O)n(Cc2cnc3ccccc3c2)c1Sc1cc(Cl)cc(Cl)c1 | > 100 µg/mL
CCOC(=O)Cn1c(CCCOCc2ccccc2)nc(C(C)C)c1Sc1cc(Cl)cc(Cl)c1 [Compound 136d] | 12.5 µg/mL

Proceed to the following item.
Requested read-out: CC50 at 120 h. Entry: Cc1ncccc1Cn1c(COC(N)=O)nc(C(C)C)c1Sc1cc(Cl)cc(Cl)c1
12.5 µg/mL
